This listing pairs compounds with measured AUC(0-t).
Assay: Cassette pharmacokinetics studies in mice
Type: in vivo
Settings: male, Balb/c, plasma; Mouse, IV, 2 mg/kg

{"mol": "CNS(=O)(=O)Nc1cccc(Oc2c(C(=O)NC3CC3)c(Nc3ccc(I)cc3F)n(C)c(=O)c2C)c1Cl", "AUC(0-t) / ng·h/mL": 1940}
{"mol": "CNS(=O)(=O)Nc1cccc(Oc2c(C(=O)NC3CC3)c(Nc3ccc(I)cc3F)n(C)c(=O)c2C)c1OC", "AUC(0-t) / ng·h/mL": 452}

* * *

This listing pairs molecules with measured KD Ratio (mean), compound to DMSO.
Target: MEK1-CRAF complex (Homo sapiens (Human), UniProt Q02750)
Sequence (Q02750 whole entry, looked up): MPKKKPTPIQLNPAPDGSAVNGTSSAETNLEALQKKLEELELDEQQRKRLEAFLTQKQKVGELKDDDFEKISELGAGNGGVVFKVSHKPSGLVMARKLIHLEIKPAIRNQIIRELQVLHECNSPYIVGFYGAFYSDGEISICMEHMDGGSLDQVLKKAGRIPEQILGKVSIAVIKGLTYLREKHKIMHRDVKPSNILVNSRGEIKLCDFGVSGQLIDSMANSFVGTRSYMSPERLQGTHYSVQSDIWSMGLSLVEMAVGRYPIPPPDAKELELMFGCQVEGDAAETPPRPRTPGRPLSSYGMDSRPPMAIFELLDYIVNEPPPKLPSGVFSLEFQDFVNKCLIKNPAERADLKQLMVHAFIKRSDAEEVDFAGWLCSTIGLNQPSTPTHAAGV
Sequence (P04049 whole entry partner, looked up): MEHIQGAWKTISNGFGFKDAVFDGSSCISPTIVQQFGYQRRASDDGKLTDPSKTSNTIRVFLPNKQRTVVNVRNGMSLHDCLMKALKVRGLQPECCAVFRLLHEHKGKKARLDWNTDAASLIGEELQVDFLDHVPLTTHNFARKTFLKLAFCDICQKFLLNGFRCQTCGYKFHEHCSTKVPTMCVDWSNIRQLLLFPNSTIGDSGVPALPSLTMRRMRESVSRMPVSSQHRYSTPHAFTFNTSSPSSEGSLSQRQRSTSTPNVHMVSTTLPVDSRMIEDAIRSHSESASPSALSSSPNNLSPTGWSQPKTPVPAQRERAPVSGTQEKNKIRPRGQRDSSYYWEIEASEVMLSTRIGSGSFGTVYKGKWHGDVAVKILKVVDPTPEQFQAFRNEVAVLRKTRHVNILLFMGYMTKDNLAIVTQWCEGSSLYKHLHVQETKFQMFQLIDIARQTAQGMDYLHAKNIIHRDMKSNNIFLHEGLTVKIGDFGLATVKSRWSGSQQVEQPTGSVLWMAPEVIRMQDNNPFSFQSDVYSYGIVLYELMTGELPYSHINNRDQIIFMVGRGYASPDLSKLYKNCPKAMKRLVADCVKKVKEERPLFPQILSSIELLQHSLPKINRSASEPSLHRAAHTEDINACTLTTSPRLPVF
Test: Stabilization of MEK1-CRAF complex assay (AlphaLISA)
Type: binding
Conditions: compound 0.01 μM

{"molecule": "CNS(=O)(=O)Nc1cccc(Oc2c(C(=O)NC3CC3)c(Nc3ccc(I)cc3F)n(C)c(=O)c2C)c1OC(F)(F)F [Compound I-40]", "target": "MEK1-CRAF complex (Homo sapiens (Human), UniProt Q02750)", "KD Ratio (mean), compound to DMSO": 0.87}
{"molecule": "CNS(=O)(=O)Nc1cccc(Oc2c(C(=O)NCC(F)(F)F)c(Nc3ccc(I)cc3F)n(C)c(=O)c2C)c1Cl [Compound I-45]", "target": "MEK1-CRAF complex (Homo sapiens (Human), UniProt Q02750)", "KD Ratio (mean), compound to DMSO": 0.62}
{"molecule": "COCCNS(=O)(=O)Nc1cccc(Oc2c(C(=O)NC3CC3)c(Nc3ccc(I)cc3F)n(C)c(=O)c2C)c1Cl [Compound I-55]", "target": "MEK1-CRAF complex (Homo sapiens (Human), UniProt Q02750)", "KD Ratio (mean), compound to DMSO": 0.76}
{"molecule": "CCNC(=O)c1c(Oc2cccc(NS(=O)(=O)NC)c2Cl)c(C)c(=O)n(C)c1Nc1ccc(I)cc1F [Compound I-54]", "target": "MEK1-CRAF complex (Homo sapiens (Human), UniProt Q02750)", "KD Ratio (mean), compound to DMSO": 0.58}
{"molecule": "Cc1c(Oc2cccc(NS(=O)(=O)NC3CC3)c2Cl)c(C(=O)NC2CC2)c(Nc2ccc(I)cc2F)n(C)c1=O [Compound I-42]", "target": "MEK1-CRAF complex (Homo sapiens (Human), UniProt Q02750)", "KD Ratio (mean), compound to DMSO": 0.78}
{"molecule": "CNS(=O)(=O)Nc1cccc(Oc2c(C(=O)NC3CC3)c(Nc3ccc(I)cc3F)n(C)c(=O)c2C)c1OC [Compound I-1]", "target": "MEK1-CRAF complex (Homo sapiens (Human), UniProt Q02750)", "KD Ratio (mean), compound to DMSO": 0.80}
{"molecule": "CNS(=O)(=O)Nc1cccc(Oc2c(C(=O)NC(C)C)c(Nc3ccc(I)cc3F)n(C)c(=O)c2C)c1Cl [Compound I-41]", "target": "MEK1-CRAF complex (Homo sapiens (Human), UniProt Q02750)", "KD Ratio (mean), compound to DMSO": 0.79}
{"molecule": "CCNS(=O)(=O)Nc1cccc(Oc2c(C(=O)NC3CC3)c(Nc3ccc(I)cc3F)n(C)c(=O)c2C)c1Cl [Compound I-43]", "target": "MEK1-CRAF complex (Homo sapiens (Human), UniProt Q02750)", "KD Ratio (mean), compound to DMSO": 0.69}

* * *

Assay: Cassette pharmacokinetics studies in mice
Type: in vivo
Settings: male, Balb/c, plasma; Mouse, PO, 5 mg/kg
This listing pairs compounds with measured half-life.

{"mol": "Cc1c(Oc2cccc(NS(=O)(=O)NC3CC3)c2Cl)c(C(=O)NC2CC2)c(Nc2ccc(I)cc2F)n(C)c1=O", "unit": "h", "half-life": 1.11}
{"mol": "COCCNS(=O)(=O)Nc1cccc(Oc2c(C(=O)NC3CC3)c(Nc3ccc(I)cc3F)n(C)c(=O)c2C)c1Cl", "unit": "h", "half-life": 1.58}
{"mol": "CNS(=O)(=O)Nc1cccc(Oc2c(C(=O)NC3CC3)c(Nc3ccc(I)cc3F)n(C)c(=O)c2C)c1OC(F)(F)F", "unit": "h", "half-life": 1.82}
{"mol": "CNS(=O)(=O)Nc1cccc(Oc2c(C(=O)NC3CC3)c(Nc3ccc(I)cc3F)n(C)c(=O)c2C)c1C(F)(F)F", "unit": "h", "half-life": 1.99}
{"mol": "CNS(=O)(=O)Nc1cccc(Oc2c(C(=O)NC(C)C)c(Nc3ccc(I)cc3F)n(C)c(=O)c2C)c1Cl", "unit": "h", "half-life": 1.62}
{"mol": "Cc1c(Oc2cccc(NS(=O)(=O)NCC(F)(F)F)c2Cl)c(C(=O)NC2CC2)c(Nc2ccc(I)cc2F)n(C)c1=O", "unit": "h", "half-life": 2.8}
{"mol": "CCNC(=O)c1c(Oc2cccc(NS(=O)(=O)NC)c2Cl)c(C)c(=O)n(C)c1Nc1ccc(I)cc1F", "unit": "h", "half-life": 1.6}
{"mol": "Cc1c(Oc2cccc(NS(N)(=O)=O)c2Cl)c(C(=O)NC2CC2)c(Nc2ccc(I)cc2F)n(C)c1=O", "unit": "h", "half-life": 2.27}
{"mol": "CNS(=O)(=O)Nc1cccc(Oc2c(C(=O)N(C)C3CCC3)c(Nc3ccc(I)cc3F)n(C)c(=O)c2C)c1", "unit": "h", "half-life": 0.4}
{"mol": "CNS(=O)(=O)Nc1cccc(Oc2c(C(=O)NC3CC3)c(Nc3ccc(I)cc3F)n(C)c(=O)c2C)c1Cl", "unit": "h", "half-life": 7.99}
{"mol": "CNS(=O)(=O)Nc1ccc(Oc2c(C(=O)NC3CC3)c(Nc3ccc(I)cc3F)n(C)c(=O)c2C)cc1", "unit": "h", "half-life": 2.1}
{"mol": "CCNS(=O)(=O)Nc1cccc(Oc2c(C(=O)NC3CC3)c(Nc3ccc(I)cc3F)n(C)c(=O)c2C)c1Cl", "unit": "h", "half-life": 3.92}
{"mol": "CNS(=O)(=O)Nc1cccc(Oc2c(C(=O)NC3CC3)c(Nc3ccc(I)cc3F)n(C)c(=O)c2C)c1OC", "unit": "h", "half-life": 11.6}

* * *

Assay: Cassette pharmacokinetics studies in mice
Assay type: in vivo
Conditions: male, Balb/c, plasma; Mouse, PO, 5 mg/kg
Could you please mark 1.0 for values of AUC(0-t) below 4000 ng·h/mL and 0.0 for values at or above it?

{"mol": "CNS(=O)(=O)Nc1ccc(Oc2c(C(=O)NC3CC3)c(Nc3ccc(I)cc3F)n(C)c(=O)c2C)cc1", "assigned.label": 1.0}
{"mol": "CNS(=O)(=O)Nc1cccc(Oc2c(C(=O)N(C)C3CCC3)c(Nc3ccc(I)cc3F)n(C)c(=O)c2C)c1", "assigned.label": 1.0}
{"mol": "CNS(=O)(=O)Nc1cccc(Oc2c(C(=O)NC(C)C)c(Nc3ccc(I)cc3F)n(C)c(=O)c2C)c1Cl", "assigned.label": 1.0}
{"mol": "Cc1c(Oc2cccc(NS(=O)(=O)NCC(F)(F)F)c2Cl)c(C(=O)NC2CC2)c(Nc2ccc(I)cc2F)n(C)c1=O", "assigned.label": 1.0}
{"mol": "COCCNS(=O)(=O)Nc1cccc(Oc2c(C(=O)NC3CC3)c(Nc3ccc(I)cc3F)n(C)c(=O)c2C)c1Cl", "assigned.label": 1.0}
{"mol": "CCNC(=O)c1c(Oc2cccc(NS(=O)(=O)NC)c2Cl)c(C)c(=O)n(C)c1Nc1ccc(I)cc1F", "assigned.label": 0.0}
{"mol": "CNS(=O)(=O)Nc1cccc(Oc2c(C(=O)NC3CC3)c(Nc3ccc(I)cc3F)n(C)c(=O)c2C)c1OC", "assigned.label": 1.0}
{"mol": "Cc1c(Oc2cccc(NS(=O)(=O)NC3CC3)c2Cl)c(C(=O)NC2CC2)c(Nc2ccc(I)cc2F)n(C)c1=O", "assigned.label": 1.0}
{"mol": "CCNS(=O)(=O)Nc1cccc(Oc2c(C(=O)NC3CC3)c(Nc3ccc(I)cc3F)n(C)c(=O)c2C)c1Cl", "assigned.label": 1.0}
{"mol": "CNS(=O)(=O)Nc1cccc(Oc2c(C(=O)NC3CC3)c(Nc3ccc(I)cc3F)n(C)c(=O)c2C)c1C(F)(F)F", "assigned.label": 0.0}
{"mol": "CNS(=O)(=O)Nc1cccc(Oc2c(C(=O)NC3CC3)c(Nc3ccc(I)cc3F)n(C)c(=O)c2C)c1OC(F)(F)F", "assigned.label": 1.0}
{"mol": "Cc1c(Oc2cccc(NS(N)(=O)=O)c2Cl)c(C(=O)NC2CC2)c(Nc2ccc(I)cc2F)n(C)c1=O", "assigned.label": 0.0}

* * *

Assay: Pharmacokinetics in rat
Assay type: in vivo
Details: plasma, IV, 0.2 mg/kg, read-out: Vdss

{"compound": "CNS(=O)(=O)Nc1cccc(Oc2c(C(=O)NC3CC3)c(Nc3ccc(I)cc3F)n(C)c(=O)c2C)c1OC [Compound I-1]", "Vd": "4.2 L/kg"}
